Assay: Oral bioavailability in Sprague-Dawley rat at 5 mg/kg by LC-MS/MS analysis
Type: ADME, organism-based
Settings: in vivo
readout name: bioavailability (%)
One number for each entry, in %.

Report bioavailability for `COc1ccc(Cn2c(=O)n3ncnc3c3c4c(sc32)CN(CC2CCOCC2)CC4)c(F)c1` please.
90

* * *

Test: Intrinsic clearance in rat liver microsomes at 1 uM in presence of NADPH by HPLC method
Assay type: ADME, microsome
Conditions: read-out: CLH
readout name: log10 of microsomal CLint at 1 µM (log10 of the value in µL/min/mg)
Heads up: the numbers are on a log10 scale; they represent microsomal CLint at 1 µM in µL/min/mg.

Guide cases for log10 of microsomal CLint at 1 µM, answers given:
[[record]]
compound = "O=c1n(Cc2ccc(Cl)cc2F)c2sc3c(c2c2ncnn12)CCN(CC1CCOCC1)C3"
reading = 1.32

[[record]]
compound = "O=C(C1CC1)N1CCc2c(sc3c2c2ncnn2c(=O)n3Cc2ccc(Cl)cc2)C1"
reading = 1.36

[[record]]
compound = "COc1ccc(Cn2c(=O)n3ncnc3c3c4c(sc32)CN(CC2CCOCC2)CC4)c(F)c1"
reading = 1.34

[[record]]
compound = "COc1ccc(Cn2c(=O)n3ncnc3c3c4c(sc32)CN(C(=O)C2CC2(F)F)CC4)cc1 (racemic)"
reading = 1.41

[[record]]
compound = "COc1ccc(Cn2c(=O)n3ncnc3c3c4c(sc32)CN(CC2CCOCC2)CC4)cc1"
reading = 1.30


Kindly give each listed record's log10 of microsomal CLint at 1 µM.
1. COc1ccc(Cn2c(=O)n3ncnc3c3c4c(sc32)CN(CC2CCOCC2)CC4(F)F)cc1
2. O=c1n(Cc2ccc(Cl)cc2)c2sc3c(c2c2ncnn12)CCN(CC1CCOCC1)C3
3. O=c1n(Cc2ccc(Cl)cc2)c2sc3c(c2c2ncnn12)CCN(Cc1ccccc1)C3

0.93
1.26
2.14

Item `O=c1n(Cc2ccc(Cl)cc2)c2sc3c(c2c2ncnn12)CCN(C1COC1)C3` has what recorded log10 of microsomal CLint at 1 µM?
1.30
